System: Aspergillus clavatus
assay_summary: Antifungal activity against Aspergillus clavatus MTCC 1323 assessed as growth inhibition by broth microdilution method
Type: functional
assay_endpoint: MIC99 (µg/mL)
Give bare numbers, in µg/mL.

Below, 4 compounds whose answers are already recorded.
INSERT INTO measurements (compound, assay_endpoint, reported_value) VALUES
  ('COc1ccc(C2CC(c3cccc([N+](=O)[O-])c3)=NN2C(C)=O)c(OC)c1OC (centres undefined)', 'MIC99', 250),
  ('O=C(/C=C/c1ccc2ccccc2c1)c1cccc([N+](=O)[O-])c1', 'MIC99', 1000),
  ('COc1ccc(C2CC(c3cccc([N+](=O)[O-])c3)=NN2C(C)=O)cc1 (centres undefined)', 'MIC99', 1000),
  ('COc1cc(OC)c(OC)cc1/C=C/C(=O)c1cccc([N+](=O)[O-])c1', 'MIC99', 1000);

Record MIC99 for all entries; do not skip any.
1. CCOC(=O)C1C(=O)C=C(c2cccc([N+](=O)[O-])c2)CC1c1ccc2c(c1)OCO2 (centres undefined)
2. O=[N+]([O-])c1cccc(C2=NNC(c3ccc4c(c3)OCO4)C2)c1 (centres undefined)
3. O=C(/C=C/C=C/c1ccccc1)c1cccc([N+](=O)[O-])c1
4. COc1ccc(C2CC(c3cccc([N+](=O)[O-])c3)=NN2C(C)=O)cc1OC (centres undefined)
5. COc1ccc(/C=C/C(=O)c2cccc([N+](=O)[O-])c2)cc1

[1000, 1000, 1000, 500, 200]

* * *

Tested on: Candida albicans
assay_summary: Antifungal activity against Candida albicans MTCC 227 assessed as growth inhibition by broth microdilution method
Assay type: functional
Please respond with reported MIC99 for every item in the list.
Numbers only, in µg/mL.

Here are 5 compounds together with their reported answers.
INSERT INTO measurements (compound, reported_value) VALUES
  ('COc1ccc(/C=C/C(=O)c2cccc([N+](=O)[O-])c2)cc1', 1000),
  ('COc1ccc(/C=C/C(=O)c2cccc([N+](=O)[O-])c2)cc1OC', 500),
  ('COc1cc(C2CC(c3cccc([N+](=O)[O-])c3)=NN2C(C)=O)cc(OC)c1OC (stereo not given)', 250),
  ('CC(=O)N1N=C(c2cccc([N+](=O)[O-])c2)CC1c1ccc2ccccc2c1 (stereo not given)', 250),
  ('COc1cc(OC)c(C2CC(c3cccc([N+](=O)[O-])c3)=NN2C(C)=O)cc1OC (stereo not given)', 1000);

Please supply MIC99 for each of the following items, keeping them in order.
1. COc1ccc(C2CC(c3cccc([N+](=O)[O-])c3)=NN2C(C)=O)c(OC)c1OC (stereo not given)
2. CCOC(=O)C1C(=O)C=C(c2cccc([N+](=O)[O-])c2)CC1c1ccc2c(c1)OCO2 (stereo not given)
3. COc1cc(/C=C/C(=O)c2cccc([N+](=O)[O-])c2)cc(OC)c1OC
4. COc1ccc(C2CC(c3cccc([N+](=O)[O-])c3)=NN2C(C)=O)cc1 (stereo not given)
5. CCOC(=O)C1C(=O)C=C(c2cccc([N+](=O)[O-])c2)CC1c1ccc(OC)cc1 (stereo not given)

[1000, 500, 250, 1000, 500]

* * *

Tested on: Candida albicans
assay_summary: Antifungal activity against Candida albicans MTCC 227 assessed as growth inhibition by broth microdilution method
Format: functional
assay_endpoint: MIC99 (µg/mL)
One number for each entry, in µg/mL.

Solved entries:
INSERT INTO assay_data (compound, subject_of_test, result_units, reported_value) VALUES
  ('COC1=CC(=O)C[C@@H](C)[C@]12Oc1c(Cl)c(OC)cc(OC)c1C2=O', 'Candida albicans', 'µg/mL', 500),
  ('COc1cc(OC)c(OC)cc1/C=C/C(=O)c1cccc([N+](=O)[O-])c1', 'Candida albicans', 'µg/mL', 1000);

Kindly review the next compound as well.
What MIC99 value was documented for this compound, COc1ccc(C2CC(c3cccc([N+](=O)[O-])c3)=NN2)cc1 (stereo not drawn) ? 250
